Reported logP values follow for various compounds
Assay: method code SF-GLC, from DOI: 10.1007/bf00343116, PMID: 4026577

Some compounds with known logP results, for comparison:
N#CCCCC#N | -0.72
N#CCCC#N | -0.99
N#CCCCCC#N | -0.32

Could you now look at the following compound, please?
Enquiry: Please look up its logP: N#CCCCCCCCCC#N
Return: 1.75

###

Experiment: method code SF-GLC, from DOI: 10.1016/j.chemosphere.2013.04.065, PMID: 23732011
propertyName: logP
Write the value as a bare number.

Enquiry: Using the record for C=CCOc1ccccc1OCC=C , report its logP.
Return: 2.7

###

Assay: method code SF-GLC, from Boikov, Yu.; Shibaev, V.; Gaidamaka, V.; V'yunov, K. (1989). Study of correlation between extraction characteristics of glycidyl ethers and theri structure. 62(1)177-179.
Each entry below carries its reported logP.
Give only the figure.

Enquiry: Given CC(C)OCC1CO1 (centres undefined) , state its recorded logP.
Return: 0.8

###

propertyName: logP

Enquiry: Data request, read-out logP, for O=[N+]([O-])c1cncnc1
Return: -0.05

###

Experiment: method code SF, from DOI: 10.1021/jm00111a036, PMID: 2066990
propertyName: logP
Reply briefly: the number, and no unit.

Enquiry: Requested field: logP. Item: O=[N+]([O-])c1nccn1CC(O)C/C=C/I (stereo unspecified)
Return: 0.4

###

propertyName: logP

Enquiry: Entry C1COC(NC(C2CC2)C2CC2)=N1 has what logP?
Return: 1.63

###

Property: logP; scope: individual molecules

Enquiry: Fill blank: measured logP of the molecule COc1cc(N)cc(OC)c1 is ____.
Return: 0.99

Enquiry: Entry Nc1cc(Cl)cc(Cl)c1 has what logP?
Return: 2.6

Enquiry: Given CCNc1nc(NCC)nc(SC)n1 , state its recorded logP.
Return: 2.63

###

In this section we review reported logP values for a set of molecules.
Experiment: method code SF-GLC, from DOI: 10.1021/jm00240a002, PMID: 1151965

COC(F)(F)C(Cl)Cl | 2.21
FC(F)(F)C(Cl)Br (stereo not drawn) | 2.3

// moving on: another record for logP
Enquiry: State the recorded logP for this entry: FC(F)(F)C(F)(F)F
Return: 2

###

Assay: method code SF-AS/IM, from DOI: 10.1002/jps.2600661205, PMID: 925928
propertyName: logP
Lab note: record the figure alone, no unit after it.

Enquiry: // returns reported logP for input CC1(C)S[C@@H]2[C@H](NC(=O)COc3ccccc3)C(=O)N2[C@H]1C(=O)O
Return: 1.95

###

Assay: method code SF-TN, from DOI: 10.1002/jps.2600741210, PMID: 4087196
Details: pH 7.4
propertyName: logD
Respond with the number and no other words.

Enquiry: May I ask what logD has been recorded for CCCCOC(=O)[C@@H](N)Cc1ccc(O)cc1 ?
Return: 1.8

###

propertyName: logP
Keep it simple and answer with nothing but the number.

Enquiry: Endpoint output: logP of OCCC(F)(F)C(F)(F)C(F)(F)C(F)(F)F . Value?
Return: 3.28

###

propertyName: logP
Format: numeric value only, no unit, no commentary.

O=C(Cc1cc(O)cc(=O)o1)c1ccccc1 | 0.43
Cc1c(O)cc(C(=O)Cc2ccccc2)oc1=O | 0.78

Consider the record given below.
Enquiry: Which measured logP value corresponds to O=c1cc(O)cco1 ?
Return: 0.5

###

propertyName: logP
Reply briefly: the number, and no unit.

Enquiry: Name the recorded logP for CCCN(CCC)P(=O)(OC(C)CC)c1ccccc1 (stereo unspecified) .
Return: 4.13

###

Assay: method code SF-GLC, from DOI: 10.1021/ac00241a023
propertyName: logP
Format: numeric value only, no unit, no commentary.

Enquiry: Name the reported logP value associated with the compound Brc1cc(Br)c(Br)cc1Br
Return: 5.13

###

*1 amine or outer side, *2 acyl side, *3 side chain or, on linkers, in order; H or OH if unused. Where a SMILES comes first, the peptide text is derived from it. [ ]: non-standard residue; d: D form. The star is where a group is joined. X1 = CC(C)C[C@H](N[*:1])[C@@H](O)C[C@H](C(=O)[*:2])C(C)C; NMeH = CN[C@@H](Cc1c[nH]cn1)C(=O)O; NHCH2(2-pyridyl) = c1ccc(CN*)nc1; Boc = CC(C)(C)OC(=O)*
propertyName: logP

Enquiry: Fill in: logP of CC[C@H](C)[C@H](NC(=O)[C@@H](C[C@H](O)[C@H](CC(C)C)NC(=O)[C@H](Cc1cnc[nH]1)N(C)C(=O)[C@H](Cc1ccccc1)NC(=O)[C@@H]1CCCN1C(=O)OC(C)(C)C)C(C)C)C(=O)NCc1ccccn1 (Boc-PF[NMeH][X1]I-{NHCH2(2-pyridyl)}) is ___
Return: 4.2

###

Experiment: method code SF-AS, from DOI: 10.1080/00021369.1974.10861343
Conditions: pH 3.0
propertyName: logD
Please state the value as a number alone, without comment.

Enquiry: Endpoint output: logD of O=C(O)/C=C/Oc1ccc(Cl)cc1Cl . Value?
Return: 3.46

###

Test: method code SF-HPLC, from DOI: 10.1023/a:1016462801968, PMID: 3334410
propertyName: logP
Enter a number only.

The examples below pair each entry with its known result.
CCCC(=O)OCC(COC(=O)CCC)OCn1cnc2c(=O)[nH]c(N)nc21 | 0.83
CCC(=O)OCC(COC(=O)CC)OCn1cnc2c(=O)[nH]c(N)nc21 | -0.14
Nc1nc2c(ncn2COC(CO)CO)c(=O)[nH]1 | -1.66

Enquiry: Recorded logP for COC(=O)OCC(COC(=O)OC)OCn1cnc2c(=O)[nH]c(N)nc21 , please?
Return: -0.88

###

Test: method code SF-RC, from DOI: 10.1016/j.nucmedbio.2009.03.005, PMID: 19647167
Details: pH 7.4
propertyName: logD
Please give the numeric answer without any surrounding text.

Enquiry: Entry under review: CO/N=C1/C=C(C#Cc2cccc(F)n2)CCC1 . Reported logD?
Return: 2.11

###

Recorded logP values for a group of compounds are listed next.
Just the number.

Below: 2 compounds and their reported logP.
CCCOP(=O)(OCCC)Oc1ccc(SC)cc1 | 3.44
CCOC(=O)C(SP(=S)(OC)OC)c1ccccc1 (configuration not stated) | 3.32

Enquiry: Name the recorded logP for COP1(=S)OCc2ccccc2O1 (configuration not stated) .
Return: 2.12

Enquiry: Item under review: CCN(OC(=O)c1ccccc1)C(=O)c1c(OC)ccc(Cl)c1OC . Reported logP?
Return: 3.73

Enquiry: Item under review: CCOP(=S)(OCC)SCCSCC . Reported logP?
Return: 3.84

Enquiry: For the compound CCCOP(=S)(OCCC)SCC(=O)N1CCCCC1C (configuration not stated) , what logP is on record?
Return: 4.04

Enquiry: Which logP value belongs to Cc1ccc(S(=O)(=O)Oc2c(C(=O)c3ccc(Cl)cc3Cl)c(C)nn2C)cc1 ?
Return: 3.9

###

Experiment: method code SF-AS, from DOI: 10.1016/0223-5234(96)88239-0
Conditions: pH 2.0
propertyName: logD
// no unit, no text: just the number

Enquiry: Reported logD, compound Cn1c(C(=O)O)cnc1C(=O)c1ccc([N+](=O)[O-])cc1 : ____
Return: 2.14

###

Experiment: method code SF-AS, from DOI: 10.1016/0006-2952(74)90620-0, PMID: 4822742
Settings: pH 7.4
propertyName: logD

Enquiry: Quick one: logD of O=S1(=O)N=CNc2ccccc21 ?
Return: 0.18

###

Below, each of the compounds is paired with its reported logD value.
Assay: method code SF-AS, from DOI: 10.1111/j.1476-5381.1975.tb07619.x, PMID: 1182339
Details: pH 10.0
Respond using a number only.

Reference set (3 entries):
N=C(N)NC(=O)Nc1ccc([N+](=O)[O-])c(Cl)c1 | 1.79
N#Cc1ccc(NC(=O)NC(=N)N)cc1Cl | 1.9
N=C(N)NC(=O)Nc1ccc(Cl)cc1 | 1.78

Enquiry: // returns reported logD for input Cc1cc(NC(=O)NC(=N)N)ccc1Cl
Return: 2.19

###

Experiment: method code SF-GLC, from DOI: 10.1002/jps.2600620103, PMID: 4734195
propertyName: logP

OCC(Cl)Cl | 0.37

Turning to the following compound.
Enquiry: Requested field: logP. Item: CC(O)C(F)(F)F (configuration not stated)
Return: 0.71

###

Experiment: method code SF-HPLC, from DOI: 10.1016/j.ijpharm.2014.07.033, PMID: 25079434
Details: pH 7.4
propertyName: logD
// print number alone

Enquiry: logD for CNC(=O)c1cccc2c(Nc3ccc(NS(C)(=O)=O)cc3OC)c3cccc(C)c3nc12 ?
Return: 3.26
